- measured_target: Ste12 (UniProt P13574)
- Sequence (P13574 whole entry): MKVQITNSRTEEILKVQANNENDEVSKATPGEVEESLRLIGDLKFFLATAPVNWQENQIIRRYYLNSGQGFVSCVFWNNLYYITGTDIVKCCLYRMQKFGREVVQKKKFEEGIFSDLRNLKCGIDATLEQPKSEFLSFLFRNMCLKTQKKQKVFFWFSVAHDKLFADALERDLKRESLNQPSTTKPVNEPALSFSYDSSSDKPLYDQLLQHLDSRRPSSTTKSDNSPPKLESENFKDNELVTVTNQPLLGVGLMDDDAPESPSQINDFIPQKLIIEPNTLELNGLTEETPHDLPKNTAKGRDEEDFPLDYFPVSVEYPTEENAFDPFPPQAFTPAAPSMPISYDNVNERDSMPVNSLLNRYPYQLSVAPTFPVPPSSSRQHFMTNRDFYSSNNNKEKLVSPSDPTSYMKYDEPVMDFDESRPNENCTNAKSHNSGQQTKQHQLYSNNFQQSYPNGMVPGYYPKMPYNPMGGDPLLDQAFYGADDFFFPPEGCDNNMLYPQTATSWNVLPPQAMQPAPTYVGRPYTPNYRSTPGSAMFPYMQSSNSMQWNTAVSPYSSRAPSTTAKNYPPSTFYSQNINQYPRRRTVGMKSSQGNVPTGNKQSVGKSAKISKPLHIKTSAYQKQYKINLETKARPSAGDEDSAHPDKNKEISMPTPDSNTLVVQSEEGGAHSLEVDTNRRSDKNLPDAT
- experiment_summary: PBM E-score (8-mer binding enrichment) (E-score (-0.5 to 0.5)); higher = stronger / more preferred TF binding
- measurement_setup: protein concentration: 200 nM; construct: GST-DNA-binding domain
Over roughly 33,000 sequences, “E-score (-0.5 to 0.5)” has its median near -0.01; the highest 2% begin near 0.26. The list comes from a sample in which the highest values are over-represented; it also holds close analogues and randomly drawn sequences.
Label y when PBM E-score is at or above 0.1; otherwise label n.

As a guide, the following entries are already answered.
INSERT INTO assay_data (residue_codes, group) VALUES
  ('AGAAAAGA', 'y'),
  ('GTTGCGAA', 'n'),
  ('CGCCCCCA', 'n'),
  ('CTTTTAAA', 'y');

-- ask Does the sequence AAAATAAG have recorded PBM E-score that is 0.1 or more?
-- reply y

-- ask Does the sequence CCCGTTTC have recorded PBM E-score that is 0.1 or more?
-- reply y

-- ask Does the sequence GGCCCCAA have recorded PBM E-score that is 0.1 or more?
-- reply n

-- ask Does the sequence CTTTAAAC have recorded PBM E-score that is 0.1 or more?
-- reply n

-- ask Does the sequence GAGTTTGC have recorded PBM E-score that is 0.1 or more?
-- reply n

-- ask Does the sequence GAAATATC have recorded PBM E-score that is 0.1 or more?
-- reply n

-- ask Does the sequence AAACGTTT have recorded PBM E-score that is 0.1 or more?
-- reply y
